# MEASURED_TARGET: UniProt:P00778
# Sequence (P00778 25-397 limits assumed): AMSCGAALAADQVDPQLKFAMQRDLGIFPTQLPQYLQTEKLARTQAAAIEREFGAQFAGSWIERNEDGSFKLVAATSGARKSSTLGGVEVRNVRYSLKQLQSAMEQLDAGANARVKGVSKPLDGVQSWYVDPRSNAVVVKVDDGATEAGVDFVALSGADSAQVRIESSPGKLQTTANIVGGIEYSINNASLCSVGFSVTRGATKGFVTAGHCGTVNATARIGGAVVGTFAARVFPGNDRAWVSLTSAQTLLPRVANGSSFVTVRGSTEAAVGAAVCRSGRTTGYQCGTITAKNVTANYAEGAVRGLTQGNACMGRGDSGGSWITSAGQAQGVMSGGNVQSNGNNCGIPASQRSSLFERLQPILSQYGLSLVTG
# ASSAY_NAME: Esterase assay, α-lytic protease
# Assay type: biochemical
# CONDITION_SUMMARY: Z-AX-OMe substrate, X = P1 residue; rates approximately ± 10%
Where a SMILES comes first, the peptide text is derived from it. The star is where a group is joined. Cbz = O=C(OCc1ccccc1)*
Overview of reported Esterase rate, α-Lytic protease across a group of molecules:
METRIC_NAME: Esterase rate, α-Lytic protease

INSERT INTO measurements (molecule, reported_result) VALUES
  ('COC(=O)[C@H](Cc1c[nH]c2ccccc12)NC(=O)[C@H](C)NC(=O)OCc1ccccc1 [Trp] (Cbz-Ala-Trp-OMe)', '0 A580 change/min./mg protease'),
  ('COC(=O)[C@H](Cc1ccc(O)cc1)NC(=O)[C@H](C)NC(=O)OCc1ccccc1 [Tyr, Z-Ala-Tyr-OMe] (Cbz-Ala-Tyr-OMe)', '0 A580 change/min./mg protease'),
  ('COC(=O)[C@H](CS)NC(=O)[C@H](C)NC(=O)OCc1ccccc1 [Cys] (Cbz-Ala-Cys-OMe)', '8.5 A580 change/min./mg protease'),
  ('COC(=O)[C@@H](NC(=O)[C@H](C)NC(=O)OCc1ccccc1)C(C)C [Val] (Cbz-Ala-Val-OMe)', '1.3 A580 change/min./mg protease'),
  ('COC(=O)[C@H](CCSC)NC(=O)[C@H](C)NC(=O)OCc1ccccc1 [Met] (Cbz-Ala-Met-OMe)', '2.0 A580 change/min./mg protease'),
  ('COC(=O)[C@H](CCCCN)NC(=O)[C@H](C)NC(=O)OCc1ccccc1 [Lys] (Cbz-Ala-Lys-OMe)', '0 A580 change/min./mg protease'),
  ('CC[C@H](C)[C@H](NC(=O)[C@H](C)NC(=O)OCc1ccccc1)C(=O)OC [Ile] (Cbz-Ala-Ile-OMe)', '0 A580 change/min./mg protease');

* * *

Overview of reported % of maximum activity, Chymotrypsin across a group of compounds:
# MEASURED_TARGET: Chymotrypsin (Bos taurus)
# ASSAY_NAME: Esterase assay, chymotrypsin
# Assay type: biochemical
# CONDITION_SUMMARY: Z-AX-OMe substrate; percentage of the maximum activity
# From the text: Advantage was taken of this activity to develop an "esterase" assay which uses a pH indicator to visualise the hydrogen ion release caused by the action of proteases on peptide-ester substrates. A series of twenty compounds of the form, carbobenzoxy alanyl-X-methyl ester (Z-AX-OMe) were synthesised where "X" is one of the naturally occurring amino acids. […] The reactions were followed visually or quantified using a standard ELISA plate reader. […]
Where a SMILES comes first, the peptide text is derived from it. The star is where a group is joined. Cbz = O=C(OCc1ccccc1)*
METRIC_NAME: % of maximum activity, Chymotrypsin (%)

INSERT INTO measurements (compound, reported_result) VALUES
  ('CC[C@H](C)[C@H](NC(=O)[C@H](C)NC(=O)OCc1ccccc1)C(=O)OC [Ile] (Cbz-Ala-Ile-OMe)', 0),
  ('COC(=O)[C@H](Cc1ccc(O)cc1)NC(=O)[C@H](C)NC(=O)OCc1ccccc1 [Tyr, Z-Ala-Tyr-OMe] (Cbz-Ala-Tyr-OMe)', 100),
  ('COC(=O)[C@@H](NC(=O)[C@H](C)NC(=O)OCc1ccccc1)C(C)C [Val] (Cbz-Ala-Val-OMe)', 0),
  ('COC(=O)[C@H](CCSC)NC(=O)[C@H](C)NC(=O)OCc1ccccc1 [Met] (Cbz-Ala-Met-OMe)', 12.0),
  ('COC(=O)[C@H](CCCNC(=N)N)NC(=O)[C@H](C)NC(=O)OCc1ccccc1 [Arg, Z-Ala-Arg-OMe] (Cbz-Ala-Arg-OMe)', 2.0),
  ('COC(=O)[C@H](CC(N)=O)NC(=O)[C@H](C)NC(=O)OCc1ccccc1 [Asn] (Cbz-Ala-Asn-OMe)', 0.5),
  ('COC(=O)[C@H](Cc1c[nH]c2ccccc12)NC(=O)[C@H](C)NC(=O)OCc1ccccc1 [Trp] (Cbz-Ala-Trp-OMe)', 49.3),
  ('COC(=O)[C@@H]1CCCN1C(=O)[C@H](C)NC(=O)OCc1ccccc1 [Pro] (Cbz-Ala-Pro-OMe)', 0),
  ('COC(=O)[C@H](Cc1cnc[nH]1)NC(=O)[C@H](C)NC(=O)OCc1ccccc1 [His] (Cbz-Ala-His-OMe)', 2.7),
  ('COC(=O)[C@H](CCC(=O)O)NC(=O)[C@H](C)NC(=O)OCc1ccccc1 [Glu] (Cbz-Ala-Glu-OMe)', 0),
  ('COC(=O)CNC(=O)[C@H](C)NC(=O)OCc1ccccc1 [Gly] (Cbz-Ala-Gly-OMe)', 0),
  ('COC(=O)[C@H](CCC(N)=O)NC(=O)[C@H](C)NC(=O)OCc1ccccc1 [Gln] (Cbz-Ala-Gln-OMe)', 0.9),
  ('COC(=O)[C@H](CC(C)C)NC(=O)[C@H](C)NC(=O)OCc1ccccc1 [Leu] (Cbz-Ala-Leu-OMe)', 4.3),
  ('COC(=O)[C@H](CCCCN)NC(=O)[C@H](C)NC(=O)OCc1ccccc1 [Lys] (Cbz-Ala-Lys-OMe)', 2.7),
  ('COC(=O)[C@H](CS)NC(=O)[C@H](C)NC(=O)OCc1ccccc1 [Cys] (Cbz-Ala-Cys-OMe)', 0.7),
  ('COC(=O)[C@H](CC(=O)O)NC(=O)[C@H](C)NC(=O)OCc1ccccc1 [Asp] (Cbz-Ala-Asp-OMe)', 0),
  ('COC(=O)[C@H](Cc1ccccc1)NC(=O)[C@H](C)NC(=O)OCc1ccccc1 [Phe]', 68.5);

Values compiled from patent US5932410A.
